Biological target: T1, FZD10 CRD (Homo sapiens, UniProt Q9ULW2)
T1 construct: 30-156; GPI anchor signal (C); expressed in transfected cells; host or cells: CHO cells, lentiviral pLenti-puro
T1 sequence (Q9ULW2 30-156): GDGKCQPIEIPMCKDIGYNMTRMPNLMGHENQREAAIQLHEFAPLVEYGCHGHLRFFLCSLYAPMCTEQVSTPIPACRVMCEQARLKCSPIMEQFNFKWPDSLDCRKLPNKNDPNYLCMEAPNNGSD
Experiment: Immunofluorescence of anti-FZD5 Fab binding to CHO cells overexpressing Frizzled CRD
Set-up: key: −: no binding; +: very weak binder; ++: weak binder; +++: good binder; ++++: very good binder
parameter_measured: Immunofluorescence binding, Frizzled CRD overexpressed on CHO cells: FZD10

# molecule, test_result
rows = [
    ("Fab-2916: anti-FZD5 Fab with antibody variable region Fv-2916; CDR SEQ ID NOs: 35, 36, 55, 94, 131, 167 (antibody, V domains shown) VH: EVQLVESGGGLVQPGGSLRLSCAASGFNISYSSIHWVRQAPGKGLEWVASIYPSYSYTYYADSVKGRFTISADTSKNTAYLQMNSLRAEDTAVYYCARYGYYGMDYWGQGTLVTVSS VL: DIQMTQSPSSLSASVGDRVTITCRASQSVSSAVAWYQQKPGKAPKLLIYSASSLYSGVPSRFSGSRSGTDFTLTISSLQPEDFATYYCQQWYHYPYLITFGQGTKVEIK", "−"),
    ("Fab-2912: anti-FZD5 Fab with antibody variable region Fv-2912; CDR SEQ ID NOs: 35, 36, 51, 90, 127, 164 (antibody, V domains shown) VH: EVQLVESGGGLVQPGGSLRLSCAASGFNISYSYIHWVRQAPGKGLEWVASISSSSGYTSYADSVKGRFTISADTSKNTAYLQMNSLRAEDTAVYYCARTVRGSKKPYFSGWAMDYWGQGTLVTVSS VL: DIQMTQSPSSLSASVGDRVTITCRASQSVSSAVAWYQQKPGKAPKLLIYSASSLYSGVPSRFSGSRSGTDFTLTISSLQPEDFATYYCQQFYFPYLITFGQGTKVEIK", "−"),
]
